The following molecules were reported with pKi values on the protein given by its sequence in different studies.
Sequence of the target: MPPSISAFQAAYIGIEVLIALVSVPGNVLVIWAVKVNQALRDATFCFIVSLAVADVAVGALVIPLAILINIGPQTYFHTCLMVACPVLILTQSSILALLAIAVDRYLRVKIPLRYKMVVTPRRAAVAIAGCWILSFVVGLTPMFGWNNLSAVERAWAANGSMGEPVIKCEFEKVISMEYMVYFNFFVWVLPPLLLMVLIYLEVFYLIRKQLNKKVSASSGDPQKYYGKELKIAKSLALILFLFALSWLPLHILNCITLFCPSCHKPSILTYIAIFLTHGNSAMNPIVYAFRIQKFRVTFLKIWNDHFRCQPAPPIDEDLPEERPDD
pKi: −log10 of the molar value.

| SMILES REPRESENTATION | pKi |
| --- | --- |
| CCOC(=O)c1nc(NC(=O)c2ccc(C)cc2)nc2nn(CC(C)(C)C)cc12 | < 4.00 |

Request: Dear colleague, I am looking for the recorded pKi of the following molecule: CCCn1c(=O)c2[nH]c(-c3cc(C)n(CC(=O)Nc4ccc(Br)cc4)n3)nc2n(CCC)c1=O
Response: < 6.00

Request: Entry to check: CCOC(=O)c1c(NC(=O)c2sc(Nc3ccc(C)cc3)nc2-c2ccc(C)cc2)sc2c1CCCC2
Response: < 4.52

Request: Entry to check: COc1cccc(-c2cn3c(=O)n(-c4ccccc4)nc3c(=O)[nH]2)c1
Response: < 4.52

Request: Entry to check: C=CCn1c(=O)c2c(nc3[nH]c(C)cn32)n(Cc2ccccc2)c1=O
Response: < 6.00

Request: Entry to check: CCCn1c(=O)c2[nH]c(-c3cnn(Cc4noc(-c5cccc(OC)c5)n4)c3)nc2n(CCC)c1=O
Response: 6.09

Request: Entry to check: O=C(Nc1ccncc1)Nc1nc2nn(CCOCc3ccccc3)cc2c2nc(-c3ccco3)nn12
Response: < 6.00

Request: Entry to check: Nc1ncnc2c1ncn2CCc1ccccc1
Response: < 4.00

Request: Entry to check: COc1ccc(-n2c(-c3sc(NC(=O)c4ccco4)nc3-c3ccccc3)nc3ccccc3c2=O)cc1
Response: < 6.00

Request: Entry to check: CCCn1c(=O)c2c(nc3[nH]c(C)cn32)n(Cc2ccccn2)c1=O
Response: < 6.00

* * *

# TARGET OR TEST SYSTEM: Adenosine receptor A1 (Homo sapiens)
# Sequence (P30542 whole entry): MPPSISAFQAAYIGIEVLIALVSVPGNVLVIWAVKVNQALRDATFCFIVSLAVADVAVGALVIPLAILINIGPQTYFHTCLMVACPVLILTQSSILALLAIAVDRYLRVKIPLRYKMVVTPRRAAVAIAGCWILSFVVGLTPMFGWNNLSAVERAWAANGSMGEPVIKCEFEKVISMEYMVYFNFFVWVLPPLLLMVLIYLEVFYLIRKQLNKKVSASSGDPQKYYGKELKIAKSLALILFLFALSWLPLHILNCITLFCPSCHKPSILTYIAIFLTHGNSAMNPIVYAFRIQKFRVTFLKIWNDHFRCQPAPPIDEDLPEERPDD
The following molecules were reported with Ki values on Adenosine receptor A1 (Homo sapiens) in different studies.

Request: Dear colleague, I am looking for the recorded Ki of the following molecule: Cn1cc2c(nc(N=C(NC3CCCCC3)NC3CCCCC3)n3nc(-c4ccco4)nc23)n1
Response: > 1 µM

Request: Entry to check: COc1cccc(N2CCN(CCCCn3ncc(=O)n(C)c3=O)CC2)c1
Response: > 10 µM

Request: Entry to check: CC1C(=O)c2nc(CN3N=C(Cl)CCC3=O)[nH]c2N(C)C1=O (stereo not drawn)
Response: > 100 µM
